# system.under.test: CCK-A (rat pancreas) (Rattus norvegicus, UniProt P30551)
# Construct: from tissue; host or cells: rat pancreas
# Sequence (P30551 1-444): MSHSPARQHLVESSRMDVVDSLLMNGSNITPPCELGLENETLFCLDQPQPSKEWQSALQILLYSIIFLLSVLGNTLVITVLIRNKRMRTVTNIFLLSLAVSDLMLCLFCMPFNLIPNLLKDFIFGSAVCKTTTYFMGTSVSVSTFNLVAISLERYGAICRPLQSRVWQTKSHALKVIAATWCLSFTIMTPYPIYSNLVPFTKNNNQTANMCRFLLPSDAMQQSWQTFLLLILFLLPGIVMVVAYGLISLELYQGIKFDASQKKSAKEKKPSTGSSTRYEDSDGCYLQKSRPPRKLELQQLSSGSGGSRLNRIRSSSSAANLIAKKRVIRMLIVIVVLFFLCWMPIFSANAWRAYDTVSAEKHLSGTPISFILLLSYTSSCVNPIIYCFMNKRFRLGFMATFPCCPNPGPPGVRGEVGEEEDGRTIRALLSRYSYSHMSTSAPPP
# protocol.notes: [125I]BHCCK-8 radioligand binding, rat pancreatic preparation
# experimental.setup: read-out: CCK binding inhibition - IC50, [125I]BHCCK
# Experimental: The resulting supernatant was re-spun at 20,000×g for 20 minutes. […] Incubations were for 40 minutes at 4° C. and were terminated by filtration and washing with ice cold 100 mM saline. […] Incubations were for 30 minutes at room temperature and were terminated by filtration over GF/C filters and washing with 100 mM NaCl.
Listed here: items and their measured IC50.

Below: 5 compounds and their reported IC50.
compound	system.under.test	reading
CC1=C\[C@@H](OC(=O)Nc2ccccc2)CC(=O)Cc2nc(co2)C(=O)N2CCC=C2C(=O)O[C@H](C(C)C)[C@H](C)/C=C/C(=O)NC\C=C\1 [Example 11]	CCK-A (rat pancreas) (Rattus norvegicus, UniProt P30551)	2.3 µM
CC1=C\[C@@H](OC(=O)Nc2cccc(C)c2)CC(=O)Cc2nc(co2)C(=O)N2CCC=C2C(=O)O[C@H](C(C)C)[C@H](C)/C=C/C(=O)NC\C=C\1 [Example 12]	CCK-A (rat pancreas) (Rattus norvegicus, UniProt P30551)	1.9 µM
CC(=O)O[C@@H]1/C=C(C)/C=C/CNC(=O)/C=C/[C@@H](C)[C@@H](C(C)C)OC(=O)C2=CCCN2C(=O)c2coc(n2)CC(=O)C1 [Example 2]	CCK-A (rat pancreas) (Rattus norvegicus, UniProt P30551)	> 3 µM
CC1=C\[C@@H](OC(=O)Nc2ccc([N+](=O)[O-])cc2)CC(=O)Cc2nc(co2)C(=O)N2CCC=C2C(=O)O[C@H](C(C)C)[C@H](C)/C=C/C(=O)NC\C=C\1 [Example 10]	CCK-A (rat pancreas) (Rattus norvegicus, UniProt P30551)	> 3 µM
CC1=C\[C@@H](OC(=O)Cc2ccccc2)CC(=O)Cc2nc(co2)C(=O)N2CCC=C2C(=O)O[C@H](C(C)C)[C@H](C)/C=C/C(=O)NC\C=C\1 [Example 5]	CCK-A (rat pancreas) (Rattus norvegicus, UniProt P30551)	> 3 µM

QUERY: What does the data say about its IC50? Entry: CC1=C\[C@@H](O)CC(O)Cc2nc(co2)C(=O)N2CCC=C2C(=O)O[C@H](C(C)C)[C@H](C)/C=C/C(=O)NC\C=C\1 (single isomer, unassigned) [Example 14B]
RESULT: > 3 µM

QUERY: IC50 for CCC(=O)O[C@@H]1/C=C(C)/C=C/CNC(=O)/C=C/[C@@H](C)[C@@H](C(C)C)OC(=O)C2=CCCN2C(=O)c2coc(n2)CC(=O)C1 [Example 3] ?
RESULT: > 3 µM

QUERY: Any idea what its IC50 is? The compound is CC1=C\[C@@H](OC(=O)Nc2cccc([N+](=O)[O-])c2)CC(=O)Cc2nc(co2)C(=O)N2CCC=C2C(=O)O[C@H](C(C)C)[C@H](C)/C=C/C(=O)NC\C=C\1 [Example 9]
RESULT: > 3 µM

QUERY: What IC50 value was documented for this compound, CNC(=O)O[C@@H]1/C=C(C)/C=C/CNC(=O)/C=C/[C@@H](C)[C@@H](C(C)C)OC(=O)C2=CCCN2C(=O)c2coc(n2)CC(=O)C1 [Example 7] ?
RESULT: > 3 µM

----------
# system.under.test: CCK-B (guinea pig cortex) (Cavia porcellus, UniProt H0VZC5)
# Construct: guinea pig cortical preparations; from tissue; host or cells: guinea pig brain cortex membranes
# Sequence (H0VZC5 1-426): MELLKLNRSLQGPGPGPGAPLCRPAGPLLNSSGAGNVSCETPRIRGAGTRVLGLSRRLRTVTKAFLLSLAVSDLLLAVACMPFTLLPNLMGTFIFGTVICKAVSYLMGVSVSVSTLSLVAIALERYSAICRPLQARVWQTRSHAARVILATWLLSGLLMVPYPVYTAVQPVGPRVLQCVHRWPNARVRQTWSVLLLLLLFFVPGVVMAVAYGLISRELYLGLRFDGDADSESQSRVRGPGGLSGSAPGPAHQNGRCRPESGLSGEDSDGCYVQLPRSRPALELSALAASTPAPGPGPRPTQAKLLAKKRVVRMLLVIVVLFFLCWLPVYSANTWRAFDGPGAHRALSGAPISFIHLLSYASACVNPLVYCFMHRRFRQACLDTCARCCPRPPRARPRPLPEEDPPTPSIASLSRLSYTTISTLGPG
# protocol.notes: [125I]BHCCK-8 radioligand binding, guinea pig cortical preparation
# experimental.setup: read-out: CCK binding inhibition - IC50, [125I]BHCCK
readout.kind: IC50 (nM)
Give just the numeric value; nM need not be written.

compound	IC50 / nM
CCC(=O)O[C@@H]1/C=C(C)/C=C/CNC(=O)/C=C/[C@@H](C)[C@@H](C(C)C)OC(=O)C2=CCCN2C(=O)c2coc(n2)CC(=O)C1 [Example 3]	600
CC1=C\[C@@H](OC(=O)Nc2ccccc2)CC(=O)Cc2nc(co2)C(=O)N2CCC=C2C(=O)O[C@H](C(C)C)[C@H](C)/C=C/C(=O)NC\C=C\1 [Example 11]	300

QUERY: For the record CNC(=O)O[C@@H]1/C=C(C)/C=C/CNC(=O)/C=C/[C@@H](C)[C@@H](C(C)C)OC(=O)C2=CCCN2C(=O)c2coc(n2)CC(=O)C1 [Example 7] , what value of IC50 is listed for CCK-B (guinea pig cortex) (Cavia porcellus, UniProt H0VZC5)?
RESULT: 800

QUERY: Find the measured IC50: item CCCCC(=O)O[C@@H]1/C=C(C)/C=C/CNC(=O)/C=C/[C@@H](C)[C@@H](C(C)C)OC(=O)C2=CCCN2C(=O)c2coc(n2)CC(=O)C1 [Example 4] , target or system CCK-B (guinea pig cortex) (Cavia porcellus, UniProt H0VZC5).
RESULT: 500

----------
# Test system: Micrococcus luteus (Mb 1101, ATCC 9341)
# protocol.notes: Agar diffusion disc assay, Micr 1101
# Format: cell-based
# experimental.setup: Micrococcus luteus, ATCC9341; 2.50 μg/disc; 25° C., ~18 hours; read-out: Mean of triplicate zone size versus Micrococcus luteus
Property: zone of inhibition at 2.5 µg/disc; scope: individual molecules
# number only, unit mm dropped from output

> print(dat)
                                item.smiles                       readout.kind  reading
1  CC1=C\[C@@H](OC(=O)Nc2ccccc2[N+](=O)[O-])CC(=O)Cc2nc(co2)C(=O)N2CCC=C2C(=O)O[C@H](C(C)C)[C@H](C)/C=C/C(=O)NC\C=C\1  zone of inhibition at 2.5 µg/disc       15
2  CCC(=O)O[C@@H]1/C=C(C)/C=C/CNC(=O)/C=C/[C@@H](C)[C@@H](C(C)C)OC(=O)C2=CCCN2C(=O)c2coc(n2)CC(=O)C1  zone of inhibition at 2.5 µg/disc        7

Kindly consider the entry below.
QUERY: Item CCCCC(=O)O[C@@H]1/C=C(C)/C=C/CNC(=O)/C=C/[C@@H](C)[C@@H](C(C)C)OC(=O)C2=CCCN2C(=O)c2coc(n2)CC(=O)C1 has what recorded zone of inhibition at 2.5 µg/disc?
RESULT: 16

----------
Measured zone of inhibition at 10 µg/disc by item
# Test system: Micrococcus luteus (Mb 1101, ATCC 9341)
# protocol.notes: Agar diffusion disc assay, Micr 1101
# Format: cell-based
# experimental.setup: Micrococcus luteus, ATCC9341; 10.0 μg/disc; 25° C., ~18 hours; read-out: Mean of triplicate zone size versus Micrococcus luteus

Completed entries (count: 3):
> print(dat)
                                item.smiles  reading
1  CC(=O)O[C@@H]1/C=C(C)/C=C/CNC(=O)/C=C/[C@@H](C)[C@@H](C(C)C)OC(=O)C2=CCCN2C(=O)c2coc(n2)CC(=O)C1    18 mm
2  CC1=C\[C@@H](OC(=O)Nc2ccc([N+](=O)[O-])cc2)CC(=O)Cc2nc(co2)C(=O)N2CCC=C2C(=O)O[C@H](C(C)C)[C@H](C)/C=C/C(=O)NC\C=C\1    10 mm
3  CC1=C\[C@@H](OC(=O)Nc2ccccc2[N+](=O)[O-])CC(=O)Cc2nc(co2)C(=O)N2CCC=C2C(=O)O[C@H](C(C)C)[C@H](C)/C=C/C(=O)NC\C=C\1    16 mm

Now consider a different compound.
QUERY: Give its zone of inhibition at 10 µg/disc value. Item: CCCCC(=O)O[C@@H]1/C=C(C)/C=C/CNC(=O)/C=C/[C@@H](C)[C@@H](C(C)C)OC(=O)C2=CCCN2C(=O)c2coc(n2)CC(=O)C1
RESULT: 21 mm
